Measurement Notes: Acute toxicity in BALB/c mouse assessed as animal survival at 200 mg/kg, ip administered per 4 hrs for 4 times and measured everyday for 14 days (Rb =100%)
Type: organism-based
Measurement Context: in vivo, time 14 day

[
  {
    "Compound": "CCCCCCCCCC(CCO)n1cnc2c(Cl)ncnc21 (racemic)",
    "Measurement Units": "%",
    "survival at 336 h": 70
  }
]

----------
Test system: HCT-116
Measurement Notes: Antiproliferative activity against human HCT-116 cells assessed as reduction in cell viability incubated for 48 hrs by MTT assay
Assay type: functional, cell-based
Measurement Context: HCT-116, 48 h
pIC50: −log10 of the molar value.
Label rule, in plain words: pIC50 of 5 and up is True, under 5 is False.

[
  {
    "Molecule": "OCCC(COCc1ccccc1)n1cnc2c(Cl)nc(F)nc21 (racemic)",
    "Answer Label": "True"
  },
  {
    "Molecule": "CCCCCCC(CCO)n1cnc2c(OC)ncnc21 (racemic)",
    "Answer Label": "False"
  },
  {
    "Molecule": "OCCCn1cnc2c(Cl)nc(F)nc21",
    "Answer Label": "False"
  },
  {
    "Molecule": "CCCCCCCCCC(CCO)n1cnc2c(Cl)nc(F)nc21 (racemic)",
    "Answer Label": "False"
  },
  {
    "Molecule": "CCCCCC(CCO)n1cnc2c(Cl)nc(Cl)nc21 (racemic)",
    "Answer Label": "True"
  },
  {
    "Molecule": "CCCCCCC[C@H](CCO)n1cnc2c(Cl)ncnc21",
    "Answer Label": "True"
  },
  {
    "Molecule": "C=C(CO)C(CCCCCC)n1cnc2c(Cl)ncnc21 (racemic)",
    "Answer Label": "False"
  },
  {
    "Molecule": "CCCCCCCCC(CCO)n1cnc2c(N)nc(Cl)nc21 (racemic)",
    "Answer Label": "False"
  },
  {
    "Molecule": "CCCCCCCCC(CCO)n1cnc2c(Cl)ncnc21 (racemic)",
    "Answer Label": "True"
  },
  {
    "Molecule": "CCCCCCC(CCO)n1cnc2c(NC)ncnc21 (racemic)",
    "Answer Label": "False"
  },
  {
    "Molecule": "CCCCCCCCCCC(CCO)n1cnc2c(N(C)C)ncnc21 (racemic)",
    "Answer Label": "True"
  },
  {
    "Molecule": "CC(CCO)n1cnc2c(Cl)ncnc21 (racemic)",
    "Answer Label": "False"
  },
  {
    "Molecule": "C#CCCC1(CCNC(=O)CC(CCCCCCCCC)n2cnc3c(Cl)ncnc32)N=N1 (racemic)",
    "Answer Label": "False"
  },
  {
    "Molecule": "CCCCCCCCCC(CCOS(C)(=O)=O)n1cnc2c(Cl)ncnc21 (racemic)",
    "Answer Label": "True"
  },
  {
    "Molecule": "CCCCCCCCC(CCO)n1cnc2c(N(C)C)ncnc21 (racemic)",
    "Answer Label": "False"
  },
  {
    "Molecule": "CCCCCCCC(CCO)n1cnc2c(N(C)C)ncnc21 (racemic)",
    "Answer Label": "False"
  }
]

----------
Measurement Notes: Acute toxicity in ip dosed BALB/c mouse administered per 4 hrs for 4 times and measured everyday for 14 days
Assay type: organism-based
Measurement Context: in vivo, time 14 day

[
  {
    "Molecule": "CCCCCCCCCC(CCO)n1cnc2c(Cl)ncnc21 (racemic)",
    "LD50 at 336 h [mg/kg]": 220
  }
]

----------
Listed below: IC50 values for each entry.
Tested on: HCT-116
Measurement Notes: Antiproliferative activity against human HCT-116 cells assessed as reduction in cell viability incubated for 48 hrs by MTT assay
Assay type: functional, cell-based
Measurement Context: HCT-116, 48 h
Reported Endpoint: IC50 (µM)

[
  {
    "Compound": "CCCCCCCCC(CCO)n1cnc2c(Cl)nc(F)nc21 (racemic)",
    "Value Relation Sign": "=",
    "Reported Measurement": 24.2
  },
  {
    "Compound": "CCCCCCCCC[C@H](CCOCP(=O)(OCC)OCC)n1cnc2c(Cl)ncnc21",
    "Value Relation Sign": "=",
    "Reported Measurement": 10.9
  },
  {
    "Compound": "CCCCCCC(CCO)n1cnc2c(N(C)C)ncnc21 (racemic)",
    "Value Relation Sign": ">",
    "Reported Measurement": 50
  },
  {
    "Compound": "CCCCCCCCCCC(CCO)n1cnc2c(N)nc(Cl)nc21 (racemic)",
    "Value Relation Sign": "=",
    "Reported Measurement": 11.8
  },
  {
    "Compound": "CCCCCCCCC(CCO)n1c(Br)nc2c(Cl)ncnc21 (racemic)",
    "Value Relation Sign": "=",
    "Reported Measurement": 22.4
  },
  {
    "Compound": "CCCCCC(CCO)n1cnc2c(OC)ncnc21 (racemic)",
    "Value Relation Sign": ">",
    "Reported Measurement": 50
  }
]

----------
System: HCT-116
Measurement Notes: Antiproliferative activity against human HCT-116 cells assessed as reduction in cell viability incubated for 48 hrs by MTT assay
Format: functional, cell-based
Measurement Context: HCT-116, 48 h
Reported Endpoint: IC50 (µM)

[
  {
    "Compound": "C=C(CO)C(CCCCCCCCC)n1cnc2c(Cl)ncnc21 (racemic)",
    "Value Relation Sign": ">",
    "Reported Measurement": 50
  },
  {
    "Compound": "CCCCC(CCO)n1cnc2c(Cl)ncnc21 (racemic)",
    "Value Relation Sign": ">",
    "Reported Measurement": 50
  },
  {
    "Compound": "CCC(CCO)n1cnc2c(Cl)nc(F)nc21 (racemic)",
    "Value Relation Sign": "=",
    "Reported Measurement": 18.9
  },
  {
    "Compound": "CCCCCCCCCCC(CCO)n1cnc2c(Cl)ncnc21 (racemic)",
    "Value Relation Sign": "=",
    "Reported Measurement": 4.93
  },
  {
    "Compound": "CCCCCCCCCC(CCO)n1cnc2c(OC)ncnc21 (racemic)",
    "Value Relation Sign": "=",
    "Reported Measurement": 2.53
  },
  {
    "Compound": "CCCCCCC(CCO)n1cnc2c(Cl)nc(Cl)nc21 (racemic)",
    "Value Relation Sign": "=",
    "Reported Measurement": 12.1
  },
  {
    "Compound": "CCCCCCCCCCCC(CCO)n1cnc2c(OC)ncnc21 (racemic)",
    "Value Relation Sign": "=",
    "Reported Measurement": 8.23
  },
  {
    "Compound": "CCCCCCCCCC(CC(=O)NCCCCCNC(=O)CCCC[C@@H]1SC[C@@H]2NC(=O)N[C@@H]21)n1cnc2c(Cl)ncnc21 (mixture of isomers)",
    "Value Relation Sign": "=",
    "Reported Measurement": 44.7
  },
  {
    "Compound": "CCCCCCCCCC(CCO)n1cnc2c(Cl)nc(Cl)nc21 (racemic)",
    "Value Relation Sign": "=",
    "Reported Measurement": 32.6
  },
  {
    "Compound": "CCCCCCCCC[C@@H](CCO)n1cnc2c(Cl)ncnc21",
    "Value Relation Sign": "=",
    "Reported Measurement": 1.05
  },
  {
    "Compound": "CCCCC(CCO)n1cnc2c(N)ncnc21 (racemic)",
    "Value Relation Sign": ">",
    "Reported Measurement": 50
  },
  {
    "Compound": "CC(CCO)n1cnc2c(Cl)nc(F)nc21 (racemic)",
    "Value Relation Sign": "=",
    "Reported Measurement": 19.8
  },
  {
    "Compound": "CCCCCC(CCO)n1cnc2c(N(C)C)ncnc21 (racemic)",
    "Value Relation Sign": ">",
    "Reported Measurement": 50
  },
  {
    "Compound": "CCCCCCCCCCC(CCO)n1cnc2c(N)ncnc21 (racemic)",
    "Value Relation Sign": "=",
    "Reported Measurement": 2.59
  },
  {
    "Compound": "CCCCCCCC(CCO)n1cnc2c(NC)ncnc21 (racemic)",
    "Value Relation Sign": "=",
    "Reported Measurement": 12.5
  },
  {
    "Compound": "CCCCCCCCCCCC(CCO)n1cnc2c(NC)ncnc21 (racemic)",
    "Value Relation Sign": "=",
    "Reported Measurement": 15.4
  },
  {
    "Compound": "CCCCCC(CCO)n1cnc2c(NC)ncnc21 (racemic)",
    "Value Relation Sign": ">",
    "Reported Measurement": 50
  },
  {
    "Compound": "CC(C)(C)[Si](C)(C)OCC(CCO)n1cnc2c(Cl)nc(F)nc21 (racemic)",
    "Value Relation Sign": "=",
    "Reported Measurement": 7.78
  },
  {
    "Compound": "CCCCCC(CCO)n1c(Br)nc2c(Cl)ncnc21 (racemic)",
    "Value Relation Sign": "=",
    "Reported Measurement": 18.3
  },
  {
    "Compound": "CCCCCCCCC[C@H](CCN=[N+]=[N-])n1cnc2c(Cl)ncnc21",
    "Value Relation Sign": "=",
    "Reported Measurement": 1.19
  },
  {
    "Compound": "CCCCCCCC(CCO)n1c(Br)nc2c(Cl)ncnc21 (racemic)",
    "Value Relation Sign": "=",
    "Reported Measurement": 16.2
  },
  {
    "Compound": "O=C(OCC(CCO)n1cnc2c(Cl)ncnc21)c1ccccc1 (racemic)",
    "Value Relation Sign": ">",
    "Reported Measurement": 50
  },
  {
    "Compound": "C=C(CO)C(CCCCC)n1cnc2c(Cl)ncnc21 (racemic)",
    "Value Relation Sign": ">",
    "Reported Measurement": 50
  },
  {
    "Compound": "CCCC(CCO)n1cnc2c(Cl)ncnc21 (racemic)",
    "Value Relation Sign": ">",
    "Reported Measurement": 50
  },
  {
    "Compound": "CCCCCC(CCO)n1cnc2cncnc21 (racemic)",
    "Value Relation Sign": ">",
    "Reported Measurement": 50
  },
  {
    "Compound": "CCCCCC(CCO)n1cnc2c(N)nc(Cl)nc21 (racemic)",
    "Value Relation Sign": ">",
    "Reported Measurement": 50
  },
  {
    "Compound": "CCCCC(CCO)n1cnc2cncnc21 (racemic)",
    "Value Relation Sign": ">",
    "Reported Measurement": 50
  },
  {
    "Compound": "CCCCCCCCCC(CCO)n1cnc2c(NC)ncnc21 (racemic)",
    "Value Relation Sign": "=",
    "Reported Measurement": 5.41
  },
  {
    "Compound": "O=C(OCC(CCO)n1cnc2c(Cl)nc(F)nc21)c1ccccc1 (racemic)",
    "Value Relation Sign": "=",
    "Reported Measurement": 5.17
  },
  {
    "Compound": "OCCC(COCc1ccccc1)n1cnc2c(Cl)ncnc21 (racemic)",
    "Value Relation Sign": ">",
    "Reported Measurement": 50
  },
  {
    "Compound": "CCCCCCCCC(CCO)n1cnc2c(NC)ncnc21 (racemic)",
    "Value Relation Sign": "=",
    "Reported Measurement": 3.73
  },
  {
    "Compound": "CCCCCC(CCO)n1cnc2c(N)ncnc21 (racemic)",
    "Value Relation Sign": ">",
    "Reported Measurement": 50
  },
  {
    "Compound": "CCCCCCCC[C@@H](CCO)n1cnc2c(Cl)ncnc21",
    "Value Relation Sign": "=",
    "Reported Measurement": 3.4
  },
  {
    "Compound": "CCCCCCCC(CCO)n1cnc2c(N)nc(Cl)nc21 (racemic)",
    "Value Relation Sign": ">",
    "Reported Measurement": 50
  },
  {
    "Compound": "CCCCCCCC(CCO)n1cnc2c(Cl)nc(Cl)nc21 (racemic)",
    "Value Relation Sign": "=",
    "Reported Measurement": 12.8
  },
  {
    "Compound": "CCCCCCCCC(CCO)n1cnc2c(Cl)nc(Cl)nc21 (racemic)",
    "Value Relation Sign": "=",
    "Reported Measurement": 22.2
  }
]

These entries and their values trace back to ChEMBL document CHEMBL4811228.
